Each item that follows carries a reported size (nm).
test: Lipid nanoparticle size and polydispersity by dynamic light scattering; type: physicochemical; conditions: LNP of lipid/DSPC/cholesterol/PEG-lipid 50:10:38.5:1.5 encapsulating hEPO mRNA
Write it as a number; the unit nm goes unstated.

Below: 4 molecules and their reported size (nm).
Q) Report measured size (nm); entry is CCCCCCCCC(CCCCCCCC)COC(=O)CCCCCN(CCO)CCN(CCCCCOC(=O)CCCCCC(CCCCCC)CCCCCC)C1CCC1 [Compound 83]
A) 87.87

Q) Report measured size (nm); entry is CCCCCCCCC(CCCCCCCC)CNC(=O)CCCCCN1CCC(N(CCO)CCCCCC(=O)OCC(CCCCCCCC)CCCCCCCC)CC1 [Compound 171]
A) 76.26

Q) Report measured size (nm); entry is CCCCCCCCC(CCCCCCCC)COC(=O)CCCCCN(CCO)CCN(CCCCCC(=O)OCC(CCCCCCCC)CCCCCCCC)CC1CCCC1 [Compound 35]
A) 54.18

Q) Report measured size (nm); entry is CCCCCCC(=O)OCC(CCCCN(CCO)CCN(CCCCC(COC(=O)CCCCCC)COC(=O)CCCCCC)C1CCC1)COC(=O)CCCCCC [Compound 165]
A) 131.30

Others:
Q) Report measured size (nm); entry is CCCCCCCCCCCOC(=O)CCCCCN(CCN(CCO)CCCCC(COC(=O)CCCCCCC)COC(=O)CCCCCCC)C1CCCCC1 [Compound 221]
A) 99.33

Q) Report measured size (nm); entry is CCCCCCCCC(CCCCCC)CNC(=O)CCCCCN(CCCCN(CCO)CCCCC(COC(=O)CCCCCCC)COC(=O)CCCCCCC)C1CCCCCCC1 (centres unmarked) [Compound 199]
A) 80.14

Q) Report measured size (nm); entry is CCCCCCCCC(CCCCCC)COC(=O)CCCCCN(CCO)CCN(CCCCC(COC(=O)CCCCCCC)COC(=O)CCCCCCC)C1CCCCCCC1 (centres unmarked) [Compound 144]
A) 68.28

----------
Test: Lipid nanoparticle size and polydispersity by dynamic light scattering
Format: physicochemical
Conditions: LNP of lipid/DSPC/cholesterol/PEG-lipid 50:10:38.5:1.5 encapsulating hEPO mRNA
Method: Briefly, a cationic lipid provided herein, DSPC, cholesterol, and PEG-lipid were solubilized in ethanol at a molar ratio of 50:10:38.5:1.5, and mRNA were diluted in 10 to 50 mM citrate buffer, pH=4. […] Lipid nanoparticle size were determined by dynamic light scattering using a Malvern Zetasizer Nano ZS (Malvern UK) using a […] backscatter detection mode. […]
Each item that follows carries a reported size (nm).
Write it as a number; the unit nm goes unstated.

Q) Report measured size (nm); entry is CCCCCCCCCCCOC(=O)CCCCCN(CCN(CCO)CCCCCC(=O)OCC(CCCCCC)CCCCCCCC)C1CCCC1 (centres unmarked)
A) 99.12

Q) Report measured size (nm); entry is CCCCCCCCC(CCCCCC)COC(=O)CCCCCN(CCO)CCN(CCCCCC(=O)OCC(CCCCCC)CCCCCCCC)C1CC1 (centres unmarked)
A) 55.12

Q) Report measured size (nm); entry is "CCCCCCCCC(CCCCCCCC)COC(=O)CCCCCN(CCO)Cc1ccc(CN(CCCCCC(=O)OCC(CCCCCCCC)CCCCCCCC)C2CCC2)cc1"
A) 71.00

Others:
Q) Report measured size (nm); entry is "CCCCCCCCC(CCCCCCCC)CNC(=O)CCCCCN(CCO)CCN(CCCCCC(=O)OCC(CCCCCCCC)CCCCCCCC)C1CCCC1"
A) 59.48

Q) Report measured size (nm); entry is "CCCCCCCCC(CCCCCCCC)COC(=O)CCOCCN(CCO)CCN(CCOCCC(=O)OCC(CCCCCCCC)CCCCCCCC)C1CCCCC1"
A) 89.42

Q) Report measured size (nm); entry is CCCCCCCCC(CCCCCC)COC(=O)CCCCCN(CCCCN(CCO)CCCCC(COC(=O)CCCCCCC)COC(=O)CCCCCCC)C1CCCC1 (centres unmarked)
A) 86.61
